- Setup Conditions: 303.15 K; 101 kPa
Below, each entry is listed alongside its reported log10 viscosity.
Experimental Readout: log10 viscosity (log10 of the value in mPa·s)

> print(dat)
                      smiles.representation  test.value
1            [Cl-].[Cl-].[Cl-].[Cl-].[Ge+4]       -0.25
2                               O=Cc1ccccc1        0.10
3                                   c1ccsc1       -0.24
4                                 NCCO.O=CO        2.17
5  CCCCCCCCCCCCOS(=O)(=O)[O-].CCCCn1cc[n+](C)c1        7.12
